# MEASURED ON: NLRP3 (Homo sapiens)
# Construct: Seed THP-1 cells (25,000 cells/well) containing 1.0 μg/ml LPS in 40 μl of RPMI medium; host or cells: THP-1 cells
# PROTOCOL SUMMARY: THP-1 cells pyroptosis assay
# Type: cell-based
# SETTINGS: LPS 1 μg/ml, compound 3 hrs, nigericin 5 μM 1 hr, resazurin readout

STRUCTURE SMILES: COc1cc(-c2cc(F)cc(C(C)C)c2CC(=O)NS(=O)(=O)c2ccc(Br)cc2C)ccn1
IC50: ≤ 1 µM

STRUCTURE SMILES: COc1cc(-c2cc(F)cc(C(C)C)c2CC(=O)NS(=O)(=O)c2cc(N(C)C)ccc2C)ccn1
IC50: ≤ 5 µM

STRUCTURE SMILES: COc1cc(-c2cc(F)cc(C(C)C)c2CC(=O)NS(=O)(=O)c2cn(CC(C)C)nc2C)ccn1
IC50: ≤ 5 µM

STRUCTURE SMILES: COc1cc(-c2cc(F)cc(C(C)C)c2CC(=O)NS(=O)(=O)CC2(C#N)CCCCC2)ccn1
IC50: ≤ 1 µM

STRUCTURE SMILES: COc1cc(-c2cc(F)cc(C(C)C)c2CC(=O)NS(=O)(=O)c2cn(C(C)C)nc2C)ccn1
IC50: ≤ 0.5 µM

STRUCTURE SMILES: COc1cc(-c2cc(F)cc(C(C)C)c2CC(=O)NS(=O)(=O)c2ccc3c(c2)C(C)(C)OC3=O)ccn1
IC50: ≤ 5 µM

STRUCTURE SMILES: COc1cc(-c2cc(F)cc(C(C)C)c2CC(=O)NS(=O)(=O)c2cc(C(C)C)c(F)cc2F)ccn1
IC50: ≤ 0.5 µM

====

The following compounds are shown together with reported pIC50 values.
# MEASURED ON: NLRP3 (Homo sapiens, UniProt Q96P20)
# Construct: Seed THP-1 cells (25,000 cells/well) containing 1.0 μg/ml LPS in 40 μl of RPMI medium
# Sequence (Q96P20 whole entry): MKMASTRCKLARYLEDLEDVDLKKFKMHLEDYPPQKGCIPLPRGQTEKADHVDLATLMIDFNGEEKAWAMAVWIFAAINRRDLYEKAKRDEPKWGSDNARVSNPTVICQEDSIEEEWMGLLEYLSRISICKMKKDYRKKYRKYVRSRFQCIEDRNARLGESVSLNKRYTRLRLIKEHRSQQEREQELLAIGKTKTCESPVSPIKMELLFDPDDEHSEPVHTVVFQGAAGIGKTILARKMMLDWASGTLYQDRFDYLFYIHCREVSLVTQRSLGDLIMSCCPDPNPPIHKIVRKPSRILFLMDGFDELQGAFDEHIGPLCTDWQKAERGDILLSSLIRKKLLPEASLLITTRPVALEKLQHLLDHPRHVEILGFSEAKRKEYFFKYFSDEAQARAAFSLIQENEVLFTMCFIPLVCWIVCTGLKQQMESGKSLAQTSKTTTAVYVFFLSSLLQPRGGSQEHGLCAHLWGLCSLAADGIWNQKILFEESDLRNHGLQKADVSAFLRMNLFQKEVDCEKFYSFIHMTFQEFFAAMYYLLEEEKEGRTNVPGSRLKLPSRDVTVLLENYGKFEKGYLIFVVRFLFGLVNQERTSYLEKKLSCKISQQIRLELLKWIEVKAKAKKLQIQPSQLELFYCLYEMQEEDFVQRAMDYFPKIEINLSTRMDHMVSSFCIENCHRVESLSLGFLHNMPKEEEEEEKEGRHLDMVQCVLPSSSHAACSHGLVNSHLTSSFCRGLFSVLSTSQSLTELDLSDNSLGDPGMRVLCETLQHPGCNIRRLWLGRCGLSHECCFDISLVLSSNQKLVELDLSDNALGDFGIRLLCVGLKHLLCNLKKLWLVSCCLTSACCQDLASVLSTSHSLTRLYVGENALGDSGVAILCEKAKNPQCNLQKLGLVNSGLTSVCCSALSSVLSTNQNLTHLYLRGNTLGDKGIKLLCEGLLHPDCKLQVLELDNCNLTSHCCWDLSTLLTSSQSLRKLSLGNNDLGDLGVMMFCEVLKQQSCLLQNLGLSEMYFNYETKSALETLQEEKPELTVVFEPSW
# PROTOCOL SUMMARY: THP-1 cells pyroptosis assay
# SETTINGS: LPS 1 μg/ml, compound 3 hrs, nigericin 5 μM 1 hr, resazurin readout
pIC50: −log10 of the molar value.
QUANTITY MEASURED: pIC50

COMPOUND: COc1cc(-c2c(CC(=O)NS(=O)(=O)c3cc(C(C)(C)O)cs3)c(C(C)C)nn2C)ccn1 [Example 147]
QUANTITY MEASURED: pIC50
VALUE OBSERVED: ≥ 5.30
//
COMPOUND: CC(C)c1cc(F)cc(-c2cccnc2)c1CC(=O)NS(=O)(=O)c1ccc(Cl)cc1 [Example 17]
QUANTITY MEASURED: pIC50
VALUE OBSERVED: ≥ 5.30
//
COMPOUND: COc1cc(-c2cc(F)cc(C(C)C)c2CC(=O)NS(=O)(=O)c2cc(C(C)(C)O)cs2)ccn1 [Example 26]
QUANTITY MEASURED: pIC50
VALUE OBSERVED: ≥ 6.30
//
COMPOUND: COc1cc(-c2cc(F)cc(C(C)C)c2CC(=O)NS(=O)(=O)c2ccc(CC#N)cc2)ccn1 [Example 187]
QUANTITY MEASURED: pIC50
VALUE OBSERVED: ≥ 5.30
//
COMPOUND: COc1cc(-c2cc(F)cc(C(C)C)c2CC(=O)NS(=O)(=O)c2ccc(Cl)c(Cl)c2)ccn1 [Example 11]
QUANTITY MEASURED: pIC50
VALUE OBSERVED: ≥ 6.00
//
COMPOUND: COc1cc(-c2cc(F)cc(C(C)C)c2CC(=O)NS(=O)(=O)c2cc(C(C)(C)O)n(C)n2)ccn1 [Example 197]
QUANTITY MEASURED: pIC50
VALUE OBSERVED: ≥ 5.30
//
COMPOUND: COc1cc(-c2cc(F)cc(C(C)C)c2CC(=O)NS(=O)(=O)c2cccc3ccoc23)ccn1 [Example 115]
QUANTITY MEASURED: pIC50
VALUE OBSERVED: ≥ 6.00
//
COMPOUND: COc1cc(-c2cc(F)cc(C(C)C)c2CC(=O)NS(=O)(=O)c2cc(Br)ccc2C)ccn1 [Example 128]
QUANTITY MEASURED: pIC50
VALUE OBSERVED: ≥ 6.00
//
COMPOUND: COc1cc(-c2cc(F)cc(C(C)C)c2CC(=O)NS(=O)(=O)c2cccc(Cl)c2)ccn1 [Example 5]
QUANTITY MEASURED: pIC50
VALUE OBSERVED: ≥ 6.00
//
COMPOUND: COc1cc(-c2cc(F)cc(C(C)C)c2CC(=O)NS(=O)(=O)c2ccc3c(c2)CCC3)ccn1 [Example 123]
QUANTITY MEASURED: pIC50
VALUE OBSERVED: ≥ 6.30
//
COMPOUND: COc1cc(-c2ccc3c(c2CC(=O)NS(=O)(=O)c2cc(C(C)(C)O)cs2)CCC3)ccn1 [Example 20]
QUANTITY MEASURED: pIC50
VALUE OBSERVED: ≥ 6.00
//
COMPOUND: COc1cc(-c2cc(F)cc(C(C)C)c2CC(=O)NS(=O)(=O)c2cc(C(C)C)cs2)ccn1 [Example 205]
QUANTITY MEASURED: pIC50
VALUE OBSERVED: ≥ 6.30
//
COMPOUND: COc1cc(-c2cc(F)cc(C(C)C)c2CC(=O)NS(=O)(=O)c2ccc(C(=O)N(C)C)cc2C)ccn1 [Example 15]
QUANTITY MEASURED: pIC50
VALUE OBSERVED: ≥ 5.30
//
COMPOUND: COc1cc(-c2cc(F)cc(C(C)C)c2CC(=O)NS(=O)(=O)c2cc(C(C)C)ccc2C)ccn1 [Example 206]
QUANTITY MEASURED: pIC50
VALUE OBSERVED: ≥ 6.30
//
COMPOUND: COc1cc(-c2cc(F)cc(C(C)C)c2CC(=O)NS(=O)(=O)c2cc(C(C)(C)O)ccn2)ccn1 [Example 170]
QUANTITY MEASURED: pIC50
VALUE OBSERVED: ≥ 6.30

====

The following compounds are shown together with reported pIC50 values.
# MEASURED ON: NLRP3 (Homo sapiens, UniProt Q96P20)
# Construct: Seed THP-1 cells (25,000 cells/well) containing 1.0 μg/ml LPS in 40 μl of RPMI medium
# PROTOCOL SUMMARY: THP-1 cells pyroptosis assay
# SETTINGS: LPS 1 μg/ml, compound 3 hrs, nigericin 5 μM 1 hr, resazurin readout
# Description: THP-1 cells (ATCC #TIB-202) were grown in RPMI containing L-glutamine (Gibco #11835) supplemented with 1 mM sodium pyruvate (Sigma #S8636) and penicillin (100 units/ml)/streptomycin (0.1 mg/ml) (Sigma #P4333) in 10% Fetal Bovine Serum (FBS) (Sigma #F0804). […] The cells were then counted and viability (>90%) checked by Trypan blue (Sigma #T8154). […] The following method step-by-step assay was followed for compound screening. • 1. […] Plates were read in an Envision reader at Ex 560 nm and Em 590 nm • 9. […]
pIC50: −log10 of the molar value. Structures can show the parent of a compound that is named as a salt.

COMPOUND: COc1cc(-c2ccc3c(c2CC(=O)NS(=O)(=O)c2cnc(C(C)(C)O)s2)CCC3)ccn1
pIC50: ≥ 5.30

COMPOUND: COc1cc(-c2cc(F)cc(C(C)C)c2CC(=O)NS(=O)(=O)c2ccc(O)nc2C)ccn1
pIC50: ≥ 5.00

COMPOUND: COc1cc(-c2cc(F)cc(C(C)C)c2CC(=O)NS(=O)(=O)c2ccc(/C(C)=N\O)cc2)ccn1
pIC50: ≥ 5.30

COMPOUND: COc1cc(-c2cc(F)cc(C(C)C)c2CC(=O)NS(=O)(=O)c2cc3ccccc3o2)ccn1
pIC50: ≥ 6.00

COMPOUND: Cc1cc(C(C)(C)O)ccc1S(=O)(=O)NC(=O)Cc1c(-c2ccnc(C#N)c2)ccc2c1CCC2
pIC50: ≥ 6.30

COMPOUND: Cc1nc(C(C)C)c(CC(=O)NS(=O)(=O)c2cc(C(C)C)c(F)cc2F)n1-c1ccncc1
pIC50: ≥ 5.30

COMPOUND: CC(C)c1cc(F)cc(-c2ccnc(O)c2)c1CC(=O)NS(=O)(=O)c1cc(C(C)(C)O)cs1
pIC50: ≥ 5.30

COMPOUND: C=C(C)c1cc(S(=O)(=O)NC(=O)Cc2c(-c3ccnc(OC)c3)cc(F)cc2C(C)C)c(F)cc1F
pIC50: ≥ 6.30

COMPOUND: COc1cc(-c2ccc3c(c2CC(=O)NS(=O)(=O)c2ccc(C(C)(C)O)cc2C)CCC3)ccn1
pIC50: ≥ 6.30

COMPOUND: COc1cc(-c2cc(F)cc(C(C)C)c2CC(=O)NS(=O)(=O)c2c(C)nn(CC(F)F)c2C)ccn1
pIC50: ≥ 5.30

COMPOUND: COc1cc(-c2cc(F)cc(C(C)C)c2CC(=O)NS(=O)(=O)c2ccc(N(C)C)cc2C)ccn1
pIC50: ≥ 6.30

COMPOUND: CC(C)c1cc(F)cc(-c2ccncc2)c1CC(=O)NS(=O)(=O)c1cc(C(C)(C)O)cs1 [Example 27, potassium salt]
pIC50: ≥ 6.30

COMPOUND: COc1cc(-c2cc(F)cc(C(C)C)c2CC(=O)NS(=O)(=O)c2ncc(C(C)(C)O)s2)ccn1
pIC50: ≥ 5.30

COMPOUND: COc1cc(-c2cc(F)cc(C(C)C)c2CC(=O)NS(=O)(=O)c2cc(CN(C)C)n(C)n2)ccn1
pIC50: ≥ 5.30

COMPOUND: COc1cc(-c2cc(F)cc(C(C)C)c2CC(=O)NS(=O)(=O)c2cc(C(=O)N(C)C)c(C)s2)ccn1
pIC50: ≥ 6.30

COMPOUND: COc1cc(-c2cc(F)cc(C(C)C)c2CC(=O)NS(=O)(=O)c2cnc(C(C)(C)O)s2)ccn1
pIC50: ≥ 5.30

COMPOUND: CC(C)n1ccc(S(=O)(=O)NC(=O)Cc2c(-c3ccnc(C#N)c3)ccc3c2CCC3)n1
pIC50: ≥ 5.00

COMPOUND: COc1cc(-c2cc(F)cc(C(C)C)c2CC(=O)NS(=O)(=O)c2ccc(B(O)O)cc2)ccn1
pIC50: ≥ 5.00

COMPOUND: COc1cc(-c2cc(F)cc(C(C)C)c2CC(=O)NS(=O)(=O)c2ccc(CCNC(C)=O)cc2)ccn1
pIC50: ≥ 5.30

COMPOUND: COC(=O)c1ccc(S(=O)(=O)NC(=O)Cc2c(-c3ccnc(OC)c3)cc(F)cc2C(C)C)c(C)c1
pIC50: ≥ 5.00

COMPOUND: COc1cc(-c2cc(F)cc(C(C)C)c2CC(=O)NS(=O)(=O)c2ccc(CN(C)C)cc2)ccn1 [Example 31, potassium salt]
pIC50: ≥ 5.30

COMPOUND: CCCn1cc(S(=O)(=O)NC(=O)Cc2c(-c3ccnc(OC)c3)cc(F)cc2C(C)C)c(C)n1
pIC50: ≥ 6.00

COMPOUND: COc1cc(-c2cc(F)cc(C(C)C)c2CC(=O)NS(=O)(=O)c2cnc3c(c2)c(C)nn3C)ccn1
pIC50: ≥ 6.00

COMPOUND: COc1cc(-c2cc(F)cc(C(C)C)c2CC(=O)NS(=O)(=O)c2c(C)nn(CC(C)C)c2C)ccn1
pIC50: ≥ 5.30

COMPOUND: COc1cc(-c2cc(F)cc(C(C)C)c2CC(=O)NS(=O)(=O)C(C)c2ccccc2)ccn1 (stereo not drawn)
pIC50: ≥ 5.00

COMPOUND: COc1cc(-c2cc(F)cc(C(C)C)c2CC(=O)NS(=O)(=O)c2ccc(Cl)cc2C)ccn1
pIC50: ≥ 6.00

COMPOUND: C=C(C)c1ccc(C)c(S(=O)(=O)NC(=O)Cc2c(-c3ccnc(OC)c3)cc(F)cc2C(C)C)c1
pIC50: ≥ 6.30

COMPOUND: COc1cc(-c2cc(F)cc(C(C)C)c2CC(=O)NS(=O)(=O)c2cc(C(C)(C)O)co2)ccn1
pIC50: ≥ 6.30

COMPOUND: COc1cc(-c2cc(F)cc(C(C)C)c2CC(=O)NS(=O)(=O)c2cc(C)c(C)s2)ccn1
pIC50: ≥ 6.30

COMPOUND: CNC(=O)c1ccc(S(=O)(=O)NC(=O)Cc2c(-c3ccnc(OC)c3)cc(F)cc2C(C)C)c(C)c1
pIC50: ≥ 5.00

Cited source for all entries: patent US12030879B2
